target: UniProt:P00533
Sequence (P00533 25-1210): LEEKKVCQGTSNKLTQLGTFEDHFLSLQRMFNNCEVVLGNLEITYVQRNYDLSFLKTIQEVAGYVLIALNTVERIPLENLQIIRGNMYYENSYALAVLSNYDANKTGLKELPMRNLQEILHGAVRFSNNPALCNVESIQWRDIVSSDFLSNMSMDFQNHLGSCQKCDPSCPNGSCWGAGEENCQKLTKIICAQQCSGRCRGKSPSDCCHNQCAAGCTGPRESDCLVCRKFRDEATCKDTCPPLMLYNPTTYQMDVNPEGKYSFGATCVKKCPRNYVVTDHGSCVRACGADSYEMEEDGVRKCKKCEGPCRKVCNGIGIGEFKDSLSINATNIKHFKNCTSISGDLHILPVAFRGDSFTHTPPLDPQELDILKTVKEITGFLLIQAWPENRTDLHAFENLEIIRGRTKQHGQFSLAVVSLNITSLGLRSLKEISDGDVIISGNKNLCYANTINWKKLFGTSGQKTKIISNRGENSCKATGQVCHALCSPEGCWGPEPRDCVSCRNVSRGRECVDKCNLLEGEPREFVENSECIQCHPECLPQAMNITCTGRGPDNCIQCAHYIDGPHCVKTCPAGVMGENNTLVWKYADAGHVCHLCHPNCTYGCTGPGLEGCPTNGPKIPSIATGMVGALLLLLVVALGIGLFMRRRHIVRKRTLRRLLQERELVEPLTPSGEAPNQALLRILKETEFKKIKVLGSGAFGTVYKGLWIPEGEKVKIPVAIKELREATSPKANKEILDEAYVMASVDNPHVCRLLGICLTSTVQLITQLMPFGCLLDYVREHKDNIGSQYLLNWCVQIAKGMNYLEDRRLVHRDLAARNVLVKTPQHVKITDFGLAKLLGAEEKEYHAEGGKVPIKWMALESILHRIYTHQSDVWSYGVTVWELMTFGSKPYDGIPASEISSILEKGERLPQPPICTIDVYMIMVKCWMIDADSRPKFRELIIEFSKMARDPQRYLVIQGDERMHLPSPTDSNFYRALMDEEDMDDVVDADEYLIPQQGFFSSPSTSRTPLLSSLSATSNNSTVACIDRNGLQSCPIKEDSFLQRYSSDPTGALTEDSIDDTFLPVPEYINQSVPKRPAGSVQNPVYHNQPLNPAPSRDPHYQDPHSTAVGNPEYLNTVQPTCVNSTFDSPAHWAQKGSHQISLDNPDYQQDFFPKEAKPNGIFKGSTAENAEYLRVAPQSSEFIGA
pIC50: −log10 of the molar value.
Record form. Attribute: pIC50. Fill in for each entry.

The cases that follow already have their pIC50 on record.
Smiles Structure: Cc1cc(Nc2ncnc3cnc(O[C@H]4C[C@@H](F)CN(C)C4)nc23)ccc1Oc1ccc2c(c1)ncn2C
Assay System: UniProt:P00533
pIC50: ≤ 5.00
//
Smiles Structure: Cc1cc(Nc2ncnc3cnc(N4CC[C@H]4C(F)F)nc23)ccc1Oc1ccc2c(c1)ncn2C
Assay System: UniProt:P00533
pIC50: ≤ 5.00
//
Smiles Structure: Cc1cc(Nc2ncnc3cnc(N4CC5(C4)CC(O)(C(F)F)C5)nc23)ccc1Oc1ccc2c(c1)ncn2C
Assay System: UniProt:P00533
pIC50: ≤ 5.00
//
Smiles Structure: Cc1cc(Nc2ncnc3cnc(N(C)Cc4ccccc4)nc23)ccc1Oc1ccc2c(c1)ncn2C
Assay System: UniProt:P00533
pIC50: ≤ 5.00
//
Smiles Structure: CC(=O)N1CC2CC(C1)N2c1ncc2ncnc(Nc3ccc(Oc4ccc5c(c4)ncn5C)c(C)c3)c2n1
Assay System: UniProt:P00533
pIC50: ≤ 5.00

Quick one: give me pIC50 for each item below, same order please.
1. Cc1cc(Nc2ncnc3cnc(N4C[C@@H]5C[C@H]4C[C@H]5O)nc23)ccc1Oc1ccc2c(c1)ncn2C
2. Cc1cc(Nc2ncnc3cnc(N4CCCO4)nc23)ccc1Oc1ccc2c(c1)ncn2C

[out]
1: ≤ 5.00; 2: ≤ 5.00
